target: T1, Human Bcl-xL protein with internal deletion of 45-85 and C-terminal truncation of 212-233, N-terminal 8xHis … (human, UniProt Q07817-1 1-211, internal deletion of 45–85); experiment: fluorescence polarisation; competition: 30 nM Bcl-xL and 2.5 nM FAM-Bak, tested BH3 peptide added; 50 mM Tris-Bis, pH 7.4, 0.01% bovine gamma globulin; Ki calculated from IC50; settings: both partners purified
T1 construct: human Bcl-xL (NM_138578), internal deletion of residues 45-85 and C-terminal truncation of 212-233; Cloned into the pHis-TEV vector (a modified pET vector); source: E. coli BL21(DE3), purified (Ni-NTA, Superdex75)
T1 sequence (Q07817 other isoform, or with tags, fused parts or gaps internal deletion of 45–85 | internal deletion of 45–85): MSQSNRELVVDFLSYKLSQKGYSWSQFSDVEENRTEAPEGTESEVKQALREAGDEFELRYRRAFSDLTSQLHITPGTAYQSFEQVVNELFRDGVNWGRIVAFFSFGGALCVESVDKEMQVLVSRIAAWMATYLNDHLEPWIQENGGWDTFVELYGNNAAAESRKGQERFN
readout name: Ki (nM)
Give a bare numeral; the unit nM is implied.

# query: Ki of entry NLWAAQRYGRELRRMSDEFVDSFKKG (Bad BH3 peptide, residues 103-128 of GenBank CAG46757; source: provided by Dr. Peter P Roller (National Cancer Institute)) [Bad BH3 peptide (residues 103-128)] 3.2
